- Assay system: cGMP-dependent protein kinase 2 (Homo sapiens);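 also: mean inhibition of PRKG2 from the GSK PKIS screen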
- Sequence (whole entry): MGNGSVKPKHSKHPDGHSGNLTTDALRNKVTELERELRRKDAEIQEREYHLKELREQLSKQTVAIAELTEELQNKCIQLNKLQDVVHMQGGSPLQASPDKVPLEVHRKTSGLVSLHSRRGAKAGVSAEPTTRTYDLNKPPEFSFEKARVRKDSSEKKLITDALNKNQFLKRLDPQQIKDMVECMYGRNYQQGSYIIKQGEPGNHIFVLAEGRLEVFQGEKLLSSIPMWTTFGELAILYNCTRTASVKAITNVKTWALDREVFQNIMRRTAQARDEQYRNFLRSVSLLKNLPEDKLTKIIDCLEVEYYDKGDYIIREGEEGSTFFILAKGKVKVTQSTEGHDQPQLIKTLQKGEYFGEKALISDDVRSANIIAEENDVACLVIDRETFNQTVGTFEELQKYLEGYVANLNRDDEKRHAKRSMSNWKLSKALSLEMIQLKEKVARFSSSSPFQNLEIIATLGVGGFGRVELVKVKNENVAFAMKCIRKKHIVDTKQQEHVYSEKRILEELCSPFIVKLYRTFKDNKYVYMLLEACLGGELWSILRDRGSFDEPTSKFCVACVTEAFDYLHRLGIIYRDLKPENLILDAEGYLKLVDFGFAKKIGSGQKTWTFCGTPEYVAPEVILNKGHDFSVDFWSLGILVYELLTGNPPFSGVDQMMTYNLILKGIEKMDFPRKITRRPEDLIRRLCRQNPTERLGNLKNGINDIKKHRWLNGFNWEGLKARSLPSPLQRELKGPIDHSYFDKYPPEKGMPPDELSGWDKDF
- Measurement context: at 1 µM
Attribute measured: inhibition (%)

- COc1cc(N2CCN(C(C)C)CC2)ccc1Nc1nc(Nc2cccc3ncccc23)c2cc[nH]c2n1: 0.42
- COc1cc(N2CCN(C(C)C)CC2)ccc1Nc1nc(Nc2cccc(F)c2C(=O)O)c2cc[nH]c2n1: 3.84
- CS(=O)(=O)CCNCc1ccc(-c2ccc3ncnc(Nc4ccc(OCc5cccc(C(F)(F)F)c5)cc4)c3c2)o1: 6.67
- Cn1c(-c2nonc2N)nc2cnccc21: 38.7
- CN(C)CCNC(=O)Nc1ccc(N(C)c2ccnc(Nc3ccc(CS(C)(=O)=O)cc3)n2)cc1: 3.5
- N#Cc1cccc(Nc2ncc(-c3ccccc3)o2)c1: 1.45
- FC(F)(F)CNc1nccc(-c2cnn3ncccc23)n1: 2.8
- CS(=O)(=O)Nc1ccc(-c2ccc3c(NC(=O)C4CC4)n[nH]c3c2)cc1: 2.97
- COc1c(C(N)=O)cc(-c2ccc(Cl)cc2)cc1-c1ccc(S(N)(=O)=O)cc1: 8.49
- Fc1cccc(COc2ccc(Nc3ncncc3C#Cc3ccccc3)cc2Cl)c1: 3.87
- Cc1cc(O)cc(C)c1/C=C/c1cncc(C(N)=O)c1: 3.49
- N#Cc1ccc2c(-c3ccnc(NC4CC4)n3)c(-c3ccc(F)cc3)nn2c1: -1.36
- NC(=O)c1ccc2c(-c3ccnc(NCCCO)n3)c(-c3ccc(F)cc3)nn2c1: 3.89
- O=C(O[C@H]1CN[C@H](C#Cc2cc3ncnc(Nc4ccc5c(cnn5Cc5ccccc5)c4)c3s2)C1)N1CCOCC1: 0.09
- CNC(=O)c1cncc(/C=C/c2ccccc2C)c1: 5.05
- COc1cc2c(cc1Nc1nc(Nc3cccc(F)c3C(N)=O)c3cc[nH]c3n1)N(C(=O)CN1CCN(C(C)C)CC1)CC2: 5.6
- CC1=C(C(=O)Nc2ccc3[nH]nc(C)c3c2)C(c2ccc(C(F)(F)F)cc2)CC(=O)N1 (stereo unspecified): 40.2
- O=C1Nc2ccccc2/C1=C1\CCc2cc(O)ccc21: 16.7
- CCn1c(-c2nonc2N)nc2cncc(C(=O)NCCNC)c21: 73.8
- O=C(O[C@H]1CN[C@H](C#Cc2cc3ncnc(Nc4ccc5c(ccn5Cc5cc(F)ccc5F)c4)c3s2)C1)N1CCOCC1: 3.72
- CCN1CCC(C(=O)Nc2n[nH]c3nnc(-c4cccc(F)c4F)cc23)CC1: 0.85
- Cc1nnc(-c2cccc(-c3ccc(C(=O)NCC4CC4)cc3)c2)o1: 3.44
- COC(=O)Nc1nc2cc(Oc3ccc(NC(=O)Nc4ccccc4)cc3)ccc2[nH]1: 1.55
- c1cnn2ncc(-c3ccnc(NCCCN4CCOCC4)n3)c2c1: 4.91
- COc1cc(Nc2ncc(-c3ccccc3)o2)cc(OC)c1: 2.19
- COc1ccccc1-c1cc(/C=C2\C(=O)Nc3ncc(Br)cc32)cc(Br)c1O: 5.97
